Values from patent US20230331848A1

target-system: T1, human PD-1-his protein (Cat#:PD1-H5221, Acro biosystems Inc.) (human, UniProt Q15116 25-167)
T1 construct: not shown: his tag
T1 sequence (Q15116 25-167 limits assumed): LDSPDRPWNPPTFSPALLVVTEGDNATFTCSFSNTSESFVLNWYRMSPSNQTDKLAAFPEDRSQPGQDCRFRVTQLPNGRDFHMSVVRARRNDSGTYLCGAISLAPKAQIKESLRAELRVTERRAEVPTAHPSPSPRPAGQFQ
assay-procedure: BLI (Octet RED96), supernatant antibody captured on AHC sensor, human PD-1-his in solution, 1:1 fit
property: koff (s⁻¹)
Give just the number in s⁻¹; leave the unit off.

[[record]]
binder = "humanized antibody huE1A9C8A7-V7 (antibody, human IgG4 S228P, kappa, V domains shown, Human IgG4/kappa) VH: QVQLVQSGAEVVKPGASVKISCKASGYTFTDYVMHWVRQAPGQGLEWIGVISTYHIPAVYNQKFKGKATMTVDTSTSTVYLELSSLRSEDTAVYYCAREVYGDSYYFDVWGQGTTVTVSS VL: DIVMTQTPLSLPVTPGEPASISCRSSQSIVHSNGNTYLEWYLQKPGQSPQLLIYKVSNRFSGVPDRFSGSGSGTDFTLKISRVEAEDVGVYYCFQGSHVPYTFGGGTKVEIKR"
property = "koff"
assay_result = 0.000356

[[record]]
binder = "humanized antibody huE1A9C8A7-V10 (antibody, human IgG4 S228P, kappa, V domains shown, Human IgG4/kappa) VH: QVQLVQSGAEVVKPGASVKISCKASGYTFTDYVMHWVRQAPGQSLEWIGVISTYHIPAVYNQKFKGKVTMTVDTSTSTVYLELSSLRSEDTAVYYCAREVYGDSYYFDVWGQGTTVTVSS VL: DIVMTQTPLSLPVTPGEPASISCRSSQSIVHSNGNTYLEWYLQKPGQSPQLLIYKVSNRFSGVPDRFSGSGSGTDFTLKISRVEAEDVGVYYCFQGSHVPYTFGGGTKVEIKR"
property = "koff"
assay_result = 0.000385

[[record]]
binder = "humanized antibody huE1A9C8A7-V2 (antibody, human IgG4 S228P, kappa, V domains shown, Human IgG4/kappa) VH: QVQLVQSGAEVVKPGASVKISCKASGYTFTDYVMHWMRQAPGQSLEWIGVISTYHIPAVYNQKFKGKATMTVDKSTSTVYLELSSLRSEDTAVYYCAREVYGDSYYFDVWGQGTTVTVSS VL: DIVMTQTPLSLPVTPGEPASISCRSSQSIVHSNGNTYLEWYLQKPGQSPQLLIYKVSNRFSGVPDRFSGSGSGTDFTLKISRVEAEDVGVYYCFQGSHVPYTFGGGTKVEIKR"
property = "koff"
assay_result = 0.000294

[[record]]
binder = "humanized antibody huE1A9C8A7-V4 (antibody, human IgG4 S228P, kappa, V domains shown, Human IgG4/kappa) VH: QVQLVQSGAEVVKPGASVKISCKASGYTFSDYVMHWMRQAPGQSLEWIGVISTYHIPAVYNQKFKGKATMTVDTSTSTVYLELSSLRSEDTAVYYCAREVYGDSYYFDVWGQGTTVTVSS VL: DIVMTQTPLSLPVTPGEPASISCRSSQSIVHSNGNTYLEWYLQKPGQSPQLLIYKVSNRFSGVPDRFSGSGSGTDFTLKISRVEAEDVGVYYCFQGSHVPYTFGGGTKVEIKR"
property = "koff"
assay_result = 0.00027

[[record]]
binder = "humanized antibody huE1A9C8A7-V1 (antibody, human IgG4 S228P, kappa, V domains shown, Human IgG4/kappa) VH: QVQLVQSGAEVVKPGASVKISCKASGYTFSDYVMHWMRQAPGQSLEWIGVISTYHIPAVYNQKFKGKATMTVDKSTSTVYLELSSLRSEDTAVYYCAREVYGDSYYFDVWGQGTTVTVSS VL: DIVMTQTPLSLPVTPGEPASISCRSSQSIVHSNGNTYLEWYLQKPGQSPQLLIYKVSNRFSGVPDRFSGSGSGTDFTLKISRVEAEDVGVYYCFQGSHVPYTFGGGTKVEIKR"
property = "koff"
assay_result = 0.000317


# context switch: different binder, same koff
Name the reported koff value associated with the binder humanized antibody huE1A9C8A7-V9 (antibody, human IgG4 S228P, kappa, V domains shown, Human IgG4/kappa) VH: QVQLVQSGAEVVKPGASVKISCKASGYTFTDYVMHWVRQAPGQSLEWIGVISTYHIPAVYNQKFKGRATMTVDTSTSTVYLELSSLRSEDTAVYYCAREVYGDSYYFDVWGQGTTVTVSS VL: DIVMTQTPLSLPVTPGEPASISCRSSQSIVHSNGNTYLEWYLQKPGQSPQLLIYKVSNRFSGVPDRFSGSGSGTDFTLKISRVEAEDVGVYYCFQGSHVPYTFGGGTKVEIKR
0.000413
